B1: TNXB (parent)
chain: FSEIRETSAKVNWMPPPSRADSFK

Variants of: B1
Experiment: protein stability index of a GFP-peptide fusion (GPS, HEK-293T) (PSI 1-6); higher = more stable;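 further: lentivirally expressed fusions sorted by FACS into six bins by GFP to DsRed ratio, PSI derived from sequencing read proportions per bin multiplied by bin number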
Settings: c terminus: a fixed tail appended
The entries below are paired with their reported protein stability index.
Form field (numeric): enter value without unit.

>  <changes>
P17L

>  <reported-measurement>
2.86

$$$$

Which protein stability index reading was recorded for the variant S18W ?
1.98

Which protein stability index reading was recorded for the variant F23K ?
4.12

Which protein stability index reading was recorded for the variant K24P ?
3.14

Which protein stability index reading was recorded for the variant K24M ?
2.48

Which protein stability index reading was recorded for the variant I4A ?
3.76

Which protein stability index reading was recorded for the variant W13Q ?
4.23

Which protein stability index reading was recorded for the variant P17H ?
3.08

Which protein stability index reading was recorded for the variant T7M ?
2.97

Which protein stability index reading was recorded for the variant R19Q ?
3.6

Which protein stability index reading was recorded for the variant E3G ?
2.34
